Study System: unphosphorylated Myo5 (actoMyo5) (Saccharomyces cerevisiae, UniProt Q04439)
Sequence (Q04439 whole entry, looked up): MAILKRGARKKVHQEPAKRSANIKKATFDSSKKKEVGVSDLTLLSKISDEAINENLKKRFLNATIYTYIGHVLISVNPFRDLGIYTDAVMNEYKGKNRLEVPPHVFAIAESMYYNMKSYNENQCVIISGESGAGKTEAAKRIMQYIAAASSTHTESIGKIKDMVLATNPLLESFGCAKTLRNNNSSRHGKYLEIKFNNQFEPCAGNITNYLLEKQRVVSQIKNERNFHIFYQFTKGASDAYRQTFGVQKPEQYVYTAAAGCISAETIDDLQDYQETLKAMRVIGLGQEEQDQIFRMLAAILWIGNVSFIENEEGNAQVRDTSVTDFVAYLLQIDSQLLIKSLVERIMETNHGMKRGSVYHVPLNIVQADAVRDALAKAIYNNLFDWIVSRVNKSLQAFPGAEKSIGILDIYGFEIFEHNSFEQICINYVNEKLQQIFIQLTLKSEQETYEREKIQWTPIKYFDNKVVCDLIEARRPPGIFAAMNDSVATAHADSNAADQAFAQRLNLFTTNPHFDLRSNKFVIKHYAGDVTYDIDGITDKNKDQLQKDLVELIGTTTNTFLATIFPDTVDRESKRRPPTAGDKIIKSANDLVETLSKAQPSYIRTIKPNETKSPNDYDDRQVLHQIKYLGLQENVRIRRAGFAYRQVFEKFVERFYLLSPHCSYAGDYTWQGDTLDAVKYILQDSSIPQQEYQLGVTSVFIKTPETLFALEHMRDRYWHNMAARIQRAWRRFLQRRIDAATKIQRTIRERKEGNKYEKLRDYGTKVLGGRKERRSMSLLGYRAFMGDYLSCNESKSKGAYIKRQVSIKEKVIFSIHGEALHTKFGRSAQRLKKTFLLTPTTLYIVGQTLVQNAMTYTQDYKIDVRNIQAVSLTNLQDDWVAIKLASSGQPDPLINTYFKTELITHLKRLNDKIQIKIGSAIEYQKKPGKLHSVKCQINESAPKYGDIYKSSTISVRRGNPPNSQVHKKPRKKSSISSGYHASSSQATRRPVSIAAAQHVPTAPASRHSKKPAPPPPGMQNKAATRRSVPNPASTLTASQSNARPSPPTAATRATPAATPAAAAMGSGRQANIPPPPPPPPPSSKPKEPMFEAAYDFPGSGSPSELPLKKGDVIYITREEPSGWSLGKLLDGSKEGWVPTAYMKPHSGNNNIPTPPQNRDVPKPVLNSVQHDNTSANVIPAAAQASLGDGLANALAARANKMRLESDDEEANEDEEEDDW
Test: biochemical
Measurement Type: Kd
Note: state the figure and append the unit.

Test item Nc1ncnc2c1ncn2[C@@H]1O[C@H](COP(=O)(O)OP(=O)(O)OP(=O)(O)O)[C@@H](O)[C@H]1O ; unphosphorylated Myo5 (actoMyo5) (Saccharomyces cerevisiae, UniProt Q04439); reported Kd was 167 µM
